# credit: paper PMC6100056

assay: Uptake of MKH-ester derivatives in HCC cells (Michaelis-Menten kinetics); format: in vitro ADME; conditions: human, SK-Hep-1 cells (HCC cell line), Michaelis-Menten fit, 95% confidence interval in square brackets
MEASUREMENT KIND: Km (µM)

a. CC(C)=CCC/C(C)=C/CC/C(C)=C/CC/C(C)=C/Cc1c(C)c(OC(=O)CN(C)C)c2ccccc2c1OC(=O)CN(C)C [MKH-DMG]
b. CC(=O)Oc1c(C)c(C/C=C(\C)CC/C=C(\C)CC/C=C(\C)CCC=C(C)C)c(OC(C)=O)c2ccccc12 [MKH-ACT, Menahydroquinone-4 1,4-bis acetate]
c. CC(C)=CCC/C(C)=C/CC/C(C)=C/CC/C(C)=C/Cc1c(C)c(OC(=O)CCC(=O)O)c2ccccc2c1OC(=O)CCC(=O)O [MKH-SUC, Menahydroquinone-4 1,4-bis hemisuccinate]
From the records above, write out the order of decreasing Km. Reply with the labels, ordered as the question asks.
a, c, b
(a: 556 µM, c: 381 µM, b: 227 µM)

----------
test system: esterase; test: Regeneration (hydrolysis) of MKH-ester derivatives to MKH in S9 fractions; format: in vitro ADME; conditions: human, S9 fraction of SK-Hep-1 cells, pH 7.4; S9 of SK-Hep-1 cells, 37 °C; Michaelis-Menten fit; 95% confidence interval in square brackets
MEASUREMENT KIND: Km (µM)

CC(=O)Oc1c(C)c(C/C=C(\C)CC/C=C(\C)CC/C=C(\C)CCC=C(C)C)c(OC(C)=O)c2ccccc12 [MKH-ACT, Menahydroquinone-4 1,4-bis acetate]	1.32

I. CC(C)=CCC/C(C)=C/CC/C(C)=C/CC/C(C)=C/Cc1c(C)c(OC(=O)CN(C)C)c2ccccc2c1OC(=O)CN(C)C [MKH-DMG]
II. CC(C)=CCC/C(C)=C/CC/C(C)=C/CC/C(C)=C/Cc1c(C)c(OC(=O)CCC(=O)O)c2ccccc2c1OC(=O)CCC(=O)O [MKH-SUC, Menahydroquinone-4 1,4-bis hemisuccinate]
Pick one: I or II . Which one has the lower reported Km? Mark your selection by writing its label.
II

----------
tested on: PLC/PRF/5 cells; assay: Cell viability assay (Cell Titer-Glo); type: cell-based; conditions: Homo sapiens, 48 h, 95% confidence interval in square brackets
The compounds listed here are annotated with their pIC50.
Please keep in mind that pIC50 is minus log10 of the molar concentration; only the number is needed.

CC(C)=CCC/C(C)=C/CC/C(C)=C/CC/C(C)=C/Cc1c(C)c(OC(=O)CN(C)C)c2ccccc2c1OC(=O)CN(C)C [MKH-DMG]	4.20

Noted for CC(C)=CCC/C(C)=C/CC/C(C)=C/CC/C(C)=C/Cc1c(C)c(OC(=O)CCC(=O)O)c2ccccc2c1OC(=O)CCC(=O)O [MKH-SUC, Menahydroquinone-4 1,4-bis hemisuccinate] : its pIC50 reads 4.31
